target: D(3) dopamine receptor (Homo sapiens); test: Displacement of [125I]-IABN from human D3 receptor transfected in human HEK 293 cells by gamma-counting
Sequence (P35462 whole entry): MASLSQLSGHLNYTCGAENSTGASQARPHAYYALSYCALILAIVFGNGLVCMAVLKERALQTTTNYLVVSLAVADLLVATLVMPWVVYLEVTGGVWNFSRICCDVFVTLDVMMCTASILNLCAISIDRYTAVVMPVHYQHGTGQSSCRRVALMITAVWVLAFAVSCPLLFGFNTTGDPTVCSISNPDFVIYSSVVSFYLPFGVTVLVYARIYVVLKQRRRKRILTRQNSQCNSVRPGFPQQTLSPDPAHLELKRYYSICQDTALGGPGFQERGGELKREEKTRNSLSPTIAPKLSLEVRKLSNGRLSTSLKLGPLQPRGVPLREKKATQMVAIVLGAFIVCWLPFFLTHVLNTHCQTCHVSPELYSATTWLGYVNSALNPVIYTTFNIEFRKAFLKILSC
ASSAY READOUT: Ki (nM)

Solved cases below.
[
  {
    "SMILES INPUT": "CN(C)c1ccc(C(=O)NCCCCN2CCN(c3ccccc3OCCF)CC2)cc1",
    "Ki [nM]": 0.65
  },
  {
    "SMILES INPUT": "COc1ccccc1N1CCN(CCCCNC(=O)c2ccc(OCCF)cc2)CC1",
    "Ki [nM]": 1.1
  },
  {
    "SMILES INPUT": "COc1ccccc1N1CCN(C/C=C/CNC(=O)c2ccc(OCCF)cc2)CC1",
    "Ki [nM]": 6.2
  },
  {
    "SMILES INPUT": "O=C(NCCCCN1CCN(c2ccccc2OCCF)CC1)c1ccc(CCF)cc1",
    "Ki [nM]": 6.9
  },
  {
    "SMILES INPUT": "COc1ccccc1N1CCN(C/C=C/CNC(=O)c2ccc(CCF)cc2)CC1",
    "Ki [nM]": 24.9
  }
]

[P] O=C(NC/C=C/CN1CCN(c2ccccc2OCCF)CC1)c1ccc(OCCF)cc1
[Q] COc1ccccc1N1CCN(C/C=C/CNC(=O)c2cc(Br)cc(OC)c2OCCF)CC1
Q) Hi there, can you help? I need to know whether P or Q has lower measured Ki. Please reply using the label of the selected record.
A) P
